target: PPAR delta (Homo sapiens, UniProt Q03181); assay: Transient transfection (transactivation) assay in CV-1 cells, GAL4-PPAR chimera, luciferase reporter
Sequence (Q03181 211-439 limits assumed): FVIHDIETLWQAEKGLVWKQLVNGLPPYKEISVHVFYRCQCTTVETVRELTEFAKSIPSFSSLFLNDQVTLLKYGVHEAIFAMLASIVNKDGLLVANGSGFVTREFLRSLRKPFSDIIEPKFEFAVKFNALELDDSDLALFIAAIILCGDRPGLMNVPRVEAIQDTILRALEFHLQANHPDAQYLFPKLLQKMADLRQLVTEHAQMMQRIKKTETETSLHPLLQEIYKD
quantityKind: EC50

Below are worked cases with known answers.
COc1ccc(CC(=O)O)cc1S(=O)(=O)N1CCN(c2ccc(C(F)(F)F)cc2)CC1    < 5 µM
COC(=O)[C@@H]1CN(S(=O)(=O)c2ccc(C)c(CC(=O)O)c2)CCN1c1ccc(C(F)(F)F)cn1    < 5 µM
Cc1ccc(N2CCN(S(=O)(=O)c3cc(CC(=O)O)ccc3C)CC2)cc1C    5 to 100 µM
Cc1ccc(S(=O)(=O)N2CCN(c3ccc(C(F)(F)F)cc3)CC2)cc1CC(=O)O    < 5 µM
Cc1ccc(CC(=O)O)cc1S(=O)(=O)N1CCN(c2ccc(Cl)c(Cl)c2)CC1    < 5 µM

Short answer for Cc1ccc(CC(=O)O)cc1S(=O)(=O)N1CCN(c2cnccn2)CC1 : EC50 was > 100 µM

Short answer for C[C@@H]1CN(c2ccc(C(F)(F)F)c(F)c2)C[C@H](C)N1S(=O)(=O)c1cccc(CC(=O)O)c1 : EC50 was < 5 µM

Short answer for COc1ccc(CC(=O)O)cc1S(=O)(=O)N1[C@H](C)CN(c2ccc(C(F)(F)F)cn2)C[C@@H]1C : EC50 was 5 to 100 µM

Short answer for O=C(O)Cc1cccc(S(=O)(=O)N2CCN(C(c3ccc(F)cc3)c3ccc(F)cc3)CC2)c1 : EC50 was > 100 µM

Short answer for N#Cc1ccccc1N1CCN(S(=O)(=O)c2cccc(CC(=O)O)c2)CC1 : EC50 was > 100 µM

Short answer for Cc1ccc(S(=O)(=O)N2CCN(c3ccc4occc4c3)CC2C)cc1CC(=O)O (centres unmarked) : EC50 was 5 to 100 µM

Short answer for COc1ccc(S(=O)(=O)N2CCN(c3ccc(C(F)(F)F)cn3)CC2C)cc1CC(=O)O (centres unmarked) : EC50 was < 5 µM
